Hey, just so you know, these numbers are from patent US5990158A.

target: MMP-9 (gelatinase B) (Homo sapiens); assay: MMP-9 (gelatinase B) inhibitory activity, FITC-labeled type IV collagen degradation; conditions: 50% inhibition of collagen type IV degradation; MMP-9 derived from human fibrosarcoma; 42° C., 4 h
Sequence (P14780 94-707): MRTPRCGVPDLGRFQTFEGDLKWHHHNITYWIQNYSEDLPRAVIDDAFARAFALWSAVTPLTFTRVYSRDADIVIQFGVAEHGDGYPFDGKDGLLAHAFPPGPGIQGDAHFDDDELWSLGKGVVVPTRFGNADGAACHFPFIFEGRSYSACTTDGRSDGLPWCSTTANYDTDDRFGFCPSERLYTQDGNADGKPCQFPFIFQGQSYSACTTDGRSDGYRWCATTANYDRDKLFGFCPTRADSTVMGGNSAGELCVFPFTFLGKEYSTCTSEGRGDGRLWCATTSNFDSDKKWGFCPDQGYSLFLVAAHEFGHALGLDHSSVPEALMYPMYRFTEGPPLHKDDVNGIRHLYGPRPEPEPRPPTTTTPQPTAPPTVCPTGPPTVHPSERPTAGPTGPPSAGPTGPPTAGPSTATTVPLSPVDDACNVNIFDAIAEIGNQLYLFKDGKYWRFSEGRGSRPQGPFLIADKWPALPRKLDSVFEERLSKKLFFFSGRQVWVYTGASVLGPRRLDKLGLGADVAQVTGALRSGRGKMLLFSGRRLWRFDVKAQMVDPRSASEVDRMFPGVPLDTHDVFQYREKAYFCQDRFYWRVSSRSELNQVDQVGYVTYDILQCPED
Parameter IC50: see the listing below.

SMILES STRING | SYSTEM NAME | IC50 / nM
C=CCOc1ccc(OCCCC[C@H](CC(=O)NO)C(=O)N[C@@H](Cc2ccccc2)C(=O)NC)cc1 | MMP-9 (gelatinase B) (Homo sapiens) | 160
CNC(=O)[C@H](Cc1ccccc1)NC(=O)[C@H](CCCOc1ccc(OC)cc1)CC(=O)O | MMP-9 (gelatinase B) (Homo sapiens) | 5.1
COc1ccc(C[C@H](NC(=O)[C@H](CCCOc2ccc(OC)cc2)CC(=O)O)C(=O)NC(C)(C)C)cc1 | MMP-9 (gelatinase B) (Homo sapiens) | 13
CNC(=O)[C@@H](NC(=O)[C@H](CCCOc1ccc(OC)cc1)CC(=O)NO)C(C)(C)C | MMP-9 (gelatinase B) (Homo sapiens) | 0.11
CNC(=O)[C@H](Cc1ccccc1)NC(=O)[C@H](CCc1ccc2cccccc1-2)CC(=O)O | MMP-9 (gelatinase B) (Homo sapiens) | 1300
CCOc1ccc(C[C@H](NC(=O)[C@H](CCCOc2ccc(OC)cc2)CC(=O)O)C(=O)NC)cc1 | MMP-9 (gelatinase B) (Homo sapiens) | 9.5
CNC(=O)[C@H](Cc1ccccc1)NC(=O)[C@H](CCCCOc1ccc(OC)cc1)CC(=O)NO | MMP-9 (gelatinase B) (Homo sapiens) | 0.41
